Kindly state polymerase ribozyme fitness (log ratio) for each of the entries shown.
B1: TPR 5TU (parent)
chain: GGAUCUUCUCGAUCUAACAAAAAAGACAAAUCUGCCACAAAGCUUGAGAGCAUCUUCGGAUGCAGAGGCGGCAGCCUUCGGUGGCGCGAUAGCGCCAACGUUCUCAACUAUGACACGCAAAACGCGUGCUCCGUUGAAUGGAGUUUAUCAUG

- Variants of: B1
- EXPERIMENT SUMMARY: polymerase ribozyme fitness, log enrichment relative to wild type (log ratio); higher = more active; in vitro selection for triplet polymerase activity
This sample holds only a part of the variants without activity.

response.value for A12G C14G A22G U61A G71A C99U C123U A142G (field: polymerase ribozyme fitness (log ratio)) = ≤ -4.2

response.value for U9C G25C U56A C93U C99G (field: polymerase ribozyme fitness (log ratio)) = ≤ -4.2

response.value for U145G U151G (field: polymerase ribozyme fitness (log ratio)) = -4.07

response.value for A91C G126A (field: polymerase ribozyme fitness (log ratio)) = -4.03

response.value for U61A C85A (field: polymerase ribozyme fitness (log ratio)) = -3.12

response.value for C95A C96A C116U (field: polymerase ribozyme fitness (log ratio)) = -0.649

response.value for C5A U9G A73G C87U A120U C123U A147G (field: polymerase ribozyme fitness (log ratio)) = -3.95

response.value for A49G G140A (field: polymerase ribozyme fitness (log ratio)) = -3.77

response.value for U6A C18G U56A A106G (field: polymerase ribozyme fitness (log ratio)) = -0.358

response.value for C14U U31A A64C C75A C93G C103U (field: polymerase ribozyme fitness (log ratio)) = ≤ -4.2

response.value for A3U G48A A89G C95A U102G (field: polymerase ribozyme fitness (log ratio)) = ≤ -4.2

response.value for G70C G92U (field: polymerase ribozyme fitness (log ratio)) = -3.01

response.value for A30C C79A G88A A107G C116G A137G U144C (field: polymerase ribozyme fitness (log ratio)) = ≤ -4.2

response.value for A30G C38U A73U U78G C87G C105G (field: polymerase ribozyme fitness (log ratio)) = ≤ -4.2

response.value for C54A C149G (field: polymerase ribozyme fitness (log ratio)) = -3.71

response.value for A52C U55A A66C C79G G133U A137G (field: polymerase ribozyme fitness (log ratio)) = ≤ -4.2

response.value for A3C A41G G84A G126C (field: polymerase ribozyme fitness (log ratio)) = -0.499

response.value for A39G A137G (field: polymerase ribozyme fitness (log ratio)) = -3.57

response.value for C57U G140C (field: polymerase ribozyme fitness (log ratio)) = -3.55

response.value for A19G A91U (field: polymerase ribozyme fitness (log ratio)) = ≤ -4.2

response.value for C14G A26U G58C A89U G117U A120C C125A (field: polymerase ribozyme fitness (log ratio)) = ≤ -4.2

response.value for C5G G11A A73G C76U (field: polymerase ribozyme fitness (log ratio)) = -2.17

response.value for G11A U15G A17C A20U U33C A64G C93G A110G A147U (field: polymerase ribozyme fitness (log ratio)) = ≤ -4.2

response.value for U44G C54U C85G G117U A122U (field: polymerase ribozyme fitness (log ratio)) = ≤ -4.2

response.value for G25A U31A U56A G58A A60C C95U U135A (field: polymerase ribozyme fitness (log ratio)) = -1.75

response.value for G11C C116G (field: polymerase ribozyme fitness (log ratio)) = -0.794

response.value for G50A C87U (field: polymerase ribozyme fitness (log ratio)) = -1.74

response.value for C32G G65C A73G C76U A106G (field: polymerase ribozyme fitness (log ratio)) = ≤ -4.2

response.value for A22C A29U U33C A47C U53G C95U C105A C118U (field: polymerase ribozyme fitness (log ratio)) = ≤ -4.2

response.value for C54U C96U U144G (field: polymerase ribozyme fitness (log ratio)) = 0.217

response.value for A20C U55G C57U A120C (field: polymerase ribozyme fitness (log ratio)) = -0.73

response.value for A21U C38U C95U A106U U144C (field: polymerase ribozyme fitness (log ratio)) = -2.96

response.value for U53A C96U C99U G143C (field: polymerase ribozyme fitness (log ratio)) = ≤ -4.2

response.value for A40U U55A G86A G133U (field: polymerase ribozyme fitness (log ratio)) = ≤ -4.2

response.value for A39U C51G U55G U61G C85U C99U (field: polymerase ribozyme fitness (log ratio)) = ≤ -4.2

response.value for C36U G94A C125A (field: polymerase ribozyme fitness (log ratio)) = -1.63

response.value for A26G C36U G65C A91G U111G C149A (field: polymerase ribozyme fitness (log ratio)) = ≤ -4.2

response.value for C76A C93A (field: polymerase ribozyme fitness (log ratio)) = -3.88

response.value for A3C U7A G84U U144G (field: polymerase ribozyme fitness (log ratio)) = -2.38

response.value for A19G U148G (field: polymerase ribozyme fitness (log ratio)) = -3.88

response.value for A12C C87U C114U U139G (field: polymerase ribozyme fitness (log ratio)) = -3.08

response.value for C96G G141C (field: polymerase ribozyme fitness (log ratio)) = -0.919

response.value for A23G G59U C95U (field: polymerase ribozyme fitness (log ratio)) = -3.41

response.value for A40C U148A (field: polymerase ribozyme fitness (log ratio)) = -3.51

response.value for A47U U56A C95U A119U U135A (field: polymerase ribozyme fitness (log ratio)) = -2.15

response.value for U77C C85A C108A U111C A113U (field: polymerase ribozyme fitness (log ratio)) = ≤ -4.2

response.value for U7C U56A G94A A98G (field: polymerase ribozyme fitness (log ratio)) = -3.41

response.value for A28U A49G C54A C93U U144C (field: polymerase ribozyme fitness (log ratio)) = ≤ -4.2

response.value for C93A G126A A137G (field: polymerase ribozyme fitness (log ratio)) = -2.09

response.value for G34A C79U A107C C108G C116G (field: polymerase ribozyme fitness (log ratio)) = ≤ -4.2

response.value for C32U C75U G88A A115C (field: polymerase ribozyme fitness (log ratio)) = ≤ -4.2

response.value for G83C G84U A110C (field: polymerase ribozyme fitness (log ratio)) = ≤ -4.2

response.value for G71U G141U (field: polymerase ribozyme fitness (log ratio)) = -3.55

response.value for C85A U145G (field: polymerase ribozyme fitness (log ratio)) = -1.06

response.value for C99G C149U (field: polymerase ribozyme fitness (log ratio)) = -1.74

response.value for A23U A29C C51U G68U C72G G94C G136A A147C (field: polymerase ribozyme fitness (log ratio)) = ≤ -4.2

response.value for A60G C105G U145G (field: polymerase ribozyme fitness (log ratio)) = -1.64

response.value for A21C C96A G143A U146G (field: polymerase ribozyme fitness (log ratio)) = -3.61

response.value for G58C U102A C114A (field: polymerase ribozyme fitness (log ratio)) = -4.12

response.value for U4G G94A A115U U151G (field: polymerase ribozyme fitness (log ratio)) = ≤ -4.2

response.value for A39C A47U (field: polymerase ribozyme fitness (log ratio)) = -2.53

response.value for A12C C18G A40U C123U G136U (field: polymerase ribozyme fitness (log ratio)) = -3.09

response.value for G67C C93G C99G A137U U146A (field: polymerase ribozyme fitness (log ratio)) = ≤ -4.2

response.value for C10G A17U A37C G59C C85A (field: polymerase ribozyme fitness (log ratio)) = ≤ -4.2

response.value for A17G U53A C75G A91G A113G G143A (field: polymerase ribozyme fitness (log ratio)) = ≤ -4.2

response.value for C54U A106G (field: polymerase ribozyme fitness (log ratio)) = -0.0717

response.value for A29G C96A (field: polymerase ribozyme fitness (log ratio)) = -3.46

response.value for A23U C43U U61G G84U A89C C108G U145A (field: polymerase ribozyme fitness (log ratio)) = ≤ -4.2

response.value for G65A C85A (field: polymerase ribozyme fitness (log ratio)) = -2.26

response.value for A39C U44G C75U C95U A119U G128U (field: polymerase ribozyme fitness (log ratio)) = ≤ -4.2

response.value for G84U G92C A121U (field: polymerase ribozyme fitness (log ratio)) = -2.94

response.value for C32U U61A G74U C99G (field: polymerase ribozyme fitness (log ratio)) = ≤ -4.2

response.value for C51G G83U A110C G140C (field: polymerase ribozyme fitness (log ratio)) = ≤ -4.2

response.value for C54U A60G C95U (field: polymerase ribozyme fitness (log ratio)) = -0.803

response.value for A17G C32A C51A U55A A60C G74A G81A U90G C95A (field: polymerase ribozyme fitness (log ratio)) = ≤ -4.2

response.value for C27G A66G C87U U109A A113U (field: polymerase ribozyme fitness (log ratio)) = ≤ -4.2

response.value for U53G G62C C85U U109C (field: polymerase ribozyme fitness (log ratio)) = ≤ -4.2

response.value for A21G C35A A49G C96G (field: polymerase ribozyme fitness (log ratio)) = ≤ -4.2

response.value for G34A C75U (field: polymerase ribozyme fitness (log ratio)) = -3.68

response.value for G74C U82C (field: polymerase ribozyme fitness (log ratio)) = -4.05

response.value for A30U G68U A73U G140U (field: polymerase ribozyme fitness (log ratio)) = ≤ -4.2

response.value for G11U A52U (field: polymerase ribozyme fitness (log ratio)) = -2.33

response.value for C87U C123U C149G (field: polymerase ribozyme fitness (log ratio)) = -2.65

response.value for A17G C18G U31G G68A C87U G133U (field: polymerase ribozyme fitness (log ratio)) = ≤ -4.2

response.value for U61A G124C (field: polymerase ribozyme fitness (log ratio)) = -2

response.value for A22G C54U U56A C76U G94C U145A (field: polymerase ribozyme fitness (log ratio)) = -0.624

response.value for G59C A106U (field: polymerase ribozyme fitness (log ratio)) = -0.917

response.value for C32A C38U G128C U135A (field: polymerase ribozyme fitness (log ratio)) = ≤ -4.2

response.value for A40U G58C A113C G124A (field: polymerase ribozyme fitness (log ratio)) = -2.93

response.value for U56G A73G C87A G94U C118U (field: polymerase ribozyme fitness (log ratio)) = ≤ -4.2

response.value for C43G G83U A97U U104C C116U A137C (field: polymerase ribozyme fitness (log ratio)) = ≤ -4.2
